Data provenance is ChEMBL document CHEMBL5724796.

MEASURED TARGET: Casein kinase I isoform delta (Homo sapiens)
TEST CONTEXT: Compound concentration 20.0 uM
Description: Thermal Shift Assay. Domain: start/stop: M1-K294
List of ΔTm values.
Note to self: number, then unit, no commentary.

Prompt: Give me measured ΔTm, please, for this molecule: `Cc1c(F)c(N)cc(C(=O)Nc2cc(-n3cc(C(=O)NCCCN4CCOCC4)nn3)ccc2N2CCN(C)CC2)c1Cl`
Response: 0.04 °C

Prompt: Answer with reported ΔTm of `CC(C)(O)c1ccc(N2Cc3c(ccnc3-c3ccc(F)cc3OCC(F)(F)F)C2=O)cc1`
Response: 0.07 °C

Prompt: Consider the molecule `C[C@H]1CCCN1Cc1nc2cc(NC(=O)c3ccc4c(cnn4C)c3)ccc2[nH]1` and give its recorded ΔTm.
Response: 0.92 °C

Prompt: Annotate the molecule `CC(C)(C)NS(=O)(=O)c1ccc(NC(=O)[C@H](Cc2ccccc2)NC(=O)c2ccc(F)cc2)cc1` with its measured ΔTm.
Response: 0.21 °C

====

MEASURED TARGET: Tyrosine-protein kinase ABL1 (Homo sapiens)
TEST CONTEXT: Compound concentration 20.0 uM
Description: Thermal Shift Assay. Domain: start/stop: S229-K512
Consider the cut-off 0.8 °C. If the recorded ΔTm is strictly smaller, the label is 1; if not, the label is 0.

Prompt: Report whether reported ΔTm is lower than 0.8 °C (strictly) for `NC(=O)c1cccc(NC(=O)CCC(=O)NCCc2cn(CCNS(=O)(=O)c3cccc(C(=O)O)c3)nn2)c1`
Response: 1

====

MEASURED TARGET: Bromodomain-containing protein 4 (Homo sapiens) (UniProt O60885)
TEST CONTEXT: Compound concentration 20.0 uM
MEASURE: ΔTm (°C)
Hi! Could you send only the number? It should be in °C, unit omitted.

Prompt: Look up and report measured ΔTm for this entry: `O=[N+]([O-])c1ccc(CSc2ncnc3c2ncn3[C@@H]2O[C@H](CO)[C@@H](O)[C@H]2O)cc1`
Response: -1.24

Prompt: Identify ΔTm associated with the compound NC(=O)C1CN(CCCCC(c2ccc(F)cc2)c2ccc(F)cc2)CCN1CC(=O)Nc1c(Cl)cc(N)cc1Cl (stereo not drawn)
Response: -1.03

Prompt: Return the recorded ΔTm value; entry: `O=C1c2ccccc2C(=O)c2oc(-c3cccnc3)nc21`
Response: -2.99

====

MEASURED TARGET: Tyrosine-protein kinase ABL1 (Homo sapiens) (UniProt P00519)
Sequence (P00519 whole entry): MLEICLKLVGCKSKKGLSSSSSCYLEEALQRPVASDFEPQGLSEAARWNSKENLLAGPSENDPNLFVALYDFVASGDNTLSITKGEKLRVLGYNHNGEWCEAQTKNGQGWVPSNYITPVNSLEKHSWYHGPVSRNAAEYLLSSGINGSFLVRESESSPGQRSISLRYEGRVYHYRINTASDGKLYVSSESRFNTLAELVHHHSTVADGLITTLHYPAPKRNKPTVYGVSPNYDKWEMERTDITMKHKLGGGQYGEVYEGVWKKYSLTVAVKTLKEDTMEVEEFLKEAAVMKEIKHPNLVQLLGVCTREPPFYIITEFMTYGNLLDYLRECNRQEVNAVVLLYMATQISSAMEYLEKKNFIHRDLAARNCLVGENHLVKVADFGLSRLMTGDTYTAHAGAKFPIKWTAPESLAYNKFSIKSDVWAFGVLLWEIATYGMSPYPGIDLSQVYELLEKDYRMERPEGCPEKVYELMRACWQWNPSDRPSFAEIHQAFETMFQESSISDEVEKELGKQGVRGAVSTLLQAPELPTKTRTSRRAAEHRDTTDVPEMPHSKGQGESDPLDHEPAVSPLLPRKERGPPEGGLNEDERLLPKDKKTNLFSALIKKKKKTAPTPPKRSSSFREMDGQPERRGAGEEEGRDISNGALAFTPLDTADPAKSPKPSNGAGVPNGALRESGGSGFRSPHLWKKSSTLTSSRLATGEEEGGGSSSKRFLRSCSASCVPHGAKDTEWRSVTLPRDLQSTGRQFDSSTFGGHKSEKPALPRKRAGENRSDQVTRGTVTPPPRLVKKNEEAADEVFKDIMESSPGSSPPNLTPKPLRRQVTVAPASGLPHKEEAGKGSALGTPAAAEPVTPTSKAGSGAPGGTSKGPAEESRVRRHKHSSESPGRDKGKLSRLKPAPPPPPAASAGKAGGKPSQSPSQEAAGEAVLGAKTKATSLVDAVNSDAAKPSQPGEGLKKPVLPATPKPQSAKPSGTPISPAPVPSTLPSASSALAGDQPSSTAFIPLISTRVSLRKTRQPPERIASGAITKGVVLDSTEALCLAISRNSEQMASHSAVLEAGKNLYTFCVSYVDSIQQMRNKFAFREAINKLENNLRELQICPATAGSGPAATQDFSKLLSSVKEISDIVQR
TEST CONTEXT: Compound concentration 20.0 uM
MEASURE: ΔTm
# output: numeric value plus its unit

STRUCTURE: CCCCCCCCCCCCC/C=C/[C@@H](O)[C@H](CO)NC(=O)CCl
MEASURE: ΔTm
MEASURED RESULT: 0.07 °C

Prompt: Consider the compound `CC(C)Oc1ccc(C=O)cc1` . State its measured ΔTm.
Response: 0.27 °C

Prompt: Input `CCN(CC)S(=O)(=O)c1cc(Nc2nccc(-c3ccnc(-c4ccc(NC(=O)NC)cc4)c3)n2)ccc1Cl` , output reported ΔTm.
Response: 15.6 °C

Prompt: In one line, give reported ΔTm of the entry `CN1CCc2c(n(Cc3ccc(C(=O)NO)cc3)c3ccccc23)C1` .
Response: 0.24 °C

Prompt: Query ΔTm for `N=C(N)SCc1ccc(CN2C(=O)C(=O)c3cc(C(F)(F)F)ccc32)cc1`
Response: -0.91 °C

====

MEASURED TARGET: Transcription intermediary factor 1-alpha (Homo sapiens)
Sequence (whole entry): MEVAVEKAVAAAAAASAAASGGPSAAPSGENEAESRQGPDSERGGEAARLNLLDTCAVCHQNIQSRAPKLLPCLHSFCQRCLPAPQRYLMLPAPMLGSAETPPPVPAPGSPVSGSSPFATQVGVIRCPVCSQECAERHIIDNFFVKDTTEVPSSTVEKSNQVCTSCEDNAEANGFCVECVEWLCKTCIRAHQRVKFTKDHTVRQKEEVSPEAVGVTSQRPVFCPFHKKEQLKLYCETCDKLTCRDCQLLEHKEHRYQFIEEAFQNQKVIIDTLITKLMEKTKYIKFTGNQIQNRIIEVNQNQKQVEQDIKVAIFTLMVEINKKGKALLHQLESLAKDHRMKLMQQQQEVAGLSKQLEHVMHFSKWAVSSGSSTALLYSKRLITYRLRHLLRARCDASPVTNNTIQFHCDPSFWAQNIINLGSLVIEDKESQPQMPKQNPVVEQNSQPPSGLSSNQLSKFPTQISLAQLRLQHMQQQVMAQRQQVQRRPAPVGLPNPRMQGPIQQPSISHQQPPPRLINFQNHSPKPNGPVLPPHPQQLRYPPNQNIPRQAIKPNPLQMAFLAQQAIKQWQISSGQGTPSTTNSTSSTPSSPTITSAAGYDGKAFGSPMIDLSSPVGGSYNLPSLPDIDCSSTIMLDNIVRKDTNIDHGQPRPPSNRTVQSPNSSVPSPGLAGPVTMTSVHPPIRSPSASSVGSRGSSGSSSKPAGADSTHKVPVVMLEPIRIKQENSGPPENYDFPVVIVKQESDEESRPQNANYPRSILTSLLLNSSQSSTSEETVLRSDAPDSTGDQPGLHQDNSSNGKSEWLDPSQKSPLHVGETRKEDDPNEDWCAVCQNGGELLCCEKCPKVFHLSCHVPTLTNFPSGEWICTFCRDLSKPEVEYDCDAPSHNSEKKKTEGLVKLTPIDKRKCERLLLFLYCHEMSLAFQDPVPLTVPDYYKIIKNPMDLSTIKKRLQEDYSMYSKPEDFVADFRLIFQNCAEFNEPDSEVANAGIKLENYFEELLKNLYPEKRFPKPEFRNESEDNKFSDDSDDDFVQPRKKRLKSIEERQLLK
TEST CONTEXT: Compound concentration 20.0 uM
Non-standard residues stand in square brackets, D forms with d. Residues, ends and D or L forms follow the SMILES beside them. *: point of attachment. Tyr(3-Cl) = N[C@@H](Cc1ccc(O)c(Cl)c1)C(=O)O; Benzoyl(3,5-Cl2) = O=C(c1cc(Cl)cc(Cl)c1)*; Lys(Et2) = CCN(CC)CCCC[C@H](N)C(=O)O; Gly(cPent) = N[C@H](C(=O)O)C1CCCC1; Nle = CCCC[C@H](N)C(=O)O; NH(propargyl) = C#CCN*
MEASURE: ΔTm (°C)
Form entry: value (°C) — number only.

COMPOUND: CC1=NN(c2ccc(C(=O)O)cc2)C(=O)/C1=C/c1ccc(-c2cc(C)c(C)cc2[N+](=O)[O-])o1
ΔTm (°C): -1.19
//
COMPOUND: Cc1cc(/N=N/c2ccc(S(=O)(=O)NC3CCCC3)cc2)c(N)cc1O
ΔTm (°C): 2.48
//
COMPOUND: COc1cc(-c2cn(C)c(=O)c3cnccc23)cc(OC)c1CN(C)CC(=O)NCCOCCOCCNc1cccc2c1C(=O)N(C1CCC(=O)NC1=O)C2=O (stereo not given)
ΔTm (°C): -0.75
//
COMPOUND: O=C(c1cc(Cc2n[nH]c(=O)c3ccccc23)ccc1F)N1CCN(C(=O)C2CC2)CC1
ΔTm (°C): -1.81
//
COMPOUND: N[C@@H](CCNCc1ccc(Cl)cc1)C(=O)N1CCCCC1
ΔTm (°C): 0.39
//
COMPOUND: COc1cc(-c2cn(C)c(=O)c3cnccc23)cc(OC)c1CN(C)C
ΔTm (°C): 0.87
//
COMPOUND: O=C(CCCCCCNC(=O)c1cnc(N(c2ccccc2)c2ccccc2Cl)nc1)NO
ΔTm (°C): -0.75
//
COMPOUND: O=C(O)/C(S)=C/c1c[nH]c2ccc(F)cc12
ΔTm (°C): -2.02
//
COMPOUND: COC(=O)[C@@H]1CC2=CC(=O)CC[C@]2(C)[C@@]23O[C@@H]2C[C@@]2(C)[C@@H](CC[C@@]24CCC(=O)O4)[C@H]13
ΔTm (°C): -0.62
//
COMPOUND: Cc1ccc(NC2=CC(=O)c3sc(C)nc3C2=O)cc1
ΔTm (°C): -1.44

Prompt: Indicate the recorded ΔTm value for this compound: `CCn1c(=O)c(C)cn(Cc2nnc(-c3ccc(F)c(O)c3F)s2)c1=O`
Response: -0.63

Prompt: // fetch ΔTm given entry `CC(C)(C)OC(=O)NCCCCCN(CCc1ccccc1)C(=O)n1cc(-c2ccc(OC(F)(F)F)cc2)nn1`
Response: 0.4

Prompt: Please list ΔTm recorded for the compound CCCC[C@@H](C=O)NC(=O)[C@H](CC(C)C)NC(=O)[C@H](CC(C)C)NC(C)=O (Ac-Leu-Leu-[Nle]-aldehyde)
Response: -1.21

Prompt: Give ΔTm for the following compound: `CC(=O)N1CCC(Nc2cc(C(=O)NC[C@H](O)CN3CCc4ccccc4C3)ncn2)CC1`
Response: -0.38

Prompt: Output ΔTm of `CCn1ncc2c(NC3CCOCC3)c(-c3nnc(Cc4sc(C)nc4C)o3)cnc21`
Response: 0.22

Prompt: Return reported ΔTm. Input compound: `CS(=O)(=O)c1ccc(Oc2cc(F)cc(C#N)c2)c2c1[C@H](O)[C@H](F)[C@@H]2F`
Response: 1.99

Prompt: Write down ΔTm measured for item `CC(C)Oc1ccc2c(=O)[nH]c3sccc3c2c1`
Response: -0.42

Prompt: Report ΔTm for `Cc1nc(-c2cnc(NC(C)C)n(C)c2=O)ccc1Oc1ccnc(-c2cnn(C)c2)c1`
Response: -1.36

Prompt: Please give the documented ΔTm of `CC(C)N(C(=O)c1cc(F)ccc1Oc1cncnc1N1CC2(CCN(C[C@H]3CC[C@H](NS(C)(=O)=O)CC3)CC2)C1)C(C)C`
Response: 0.16

Prompt: Look up and state reported ΔTm for `CNC(=O)c1cnc(N2CCC[C@H](N)C2)nc1Nc1cc(C(C)C)nc(C(C)C)c1`
Response: -1

Prompt: Query ΔTm for C#CCNC(=O)[C@H](CO)NC(=O)[C@H](CCCCN(CC)CC)NC(=O)[C@@H](NC(=O)[C@@H](NC(=O)[C@H](Cc1ccc(O)c(Cl)c1)NC(=O)c1cc(Cl)cc(Cl)c1)C1CCCC1)[C@@H](C)CC ({Benzoyl(3,5-Cl2)}-[Tyr(3-Cl)][Gly(cPent)]I[Lys(Et2)]S-{NH(propargyl)})
Response: 0

Prompt: Give reported ΔTm value for O=C(c1cccc(-c2ccc(-c3cn(C(=O)N4CCCCC4c4ccccc4)nn3)cc2)c1)N1CCCCC1 (stereo not given)
Response: -0.32
